These entries and their values trace back to the supplement of paper PMC10126150.

- Tested on: ATP;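 also: ATP exposure 15 min at 22 °C before imaging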
- Measurement Protocol: switch fluorescence ratio, 500 uM ATP over buffer (Cy3 cluster intensity, sum of 5 cycles each) (fold (ratio)); higher = stronger signal-on switching upon ATP binding; sequences stand for … in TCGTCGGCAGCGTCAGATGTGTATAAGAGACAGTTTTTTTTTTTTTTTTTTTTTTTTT…TC
- Run Parameters: aptamer strand: ATP DNA aptamer (quencher-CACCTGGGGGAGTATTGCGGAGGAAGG + anchor), 100 nM annealed; ATP concentration: 500 uM
Result Type: switch fluorescence ratio

1) AATGCTGCGC    1.03
2) TCTTACGGAC    1.31
3) TGAGTGAGGT    0.959
4) TGTTGGGATT    0.998
5) TAGGTGACTG    0.982
6) CGTTTGGGAG    0.974
7) CCCAATTATT    1.02
8) CAGTTAGCAT    1.1
9) AAGATGGGTG    0.997
10) TAGACCTCCC    1.81
11) TTGCAGGGGG    0.998
12) GGAATTAGGT    0.99
13) GAGGCGCTTA    0.961
14) ACAAGCGTTT    1.01
15) TGCCTATGGG    0.977
16) TTAAAATTAT    0.996
17) TATGTTTTGA    0.994
18) TTGTTGTGTT    1.01
19) GGCCTTATCG    0.991
20) GCATTAATG    1.03
21) AATTTTTCTC    1.05
22) ACCGGGGTTT    1
23) AGATGATTGG    0.985
24) CTCTTACTTT    0.986
25) GCTGAGGGGG    0.991
26) ACTTTGGGAT    1.02
27) TGGGTAGAAG    0.992
28) GGTTGAGTGT    0.984
29) AGAAGGGTTG    1
30) ATATGGTCAT    0.972
31) TTAGAGAAGT    0.987
32) TCTTAGGCGG    0.977
33) GTAGGAATGT    1.03
34) AGTTAATTTT    1
35) CTAGGAGGCG    1.03
36) TATCTGGGTC    1.02
37) CAGTGAATGT    0.976
38) TAGCGCTGCC    0.984
39) GGTGTGTGCT    0.989
40) CATCGGTAGA    1.02
41) ATTGATAGGG    1.03
42) ACGTTCTATA    1.03
43) GTTGCGGGTT    1.01
